Protocol Notes: BSK_3C_SRB: Viability Assessment in the BioMAP Diversity Plus: 3C Assay (AID 2283023);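 also: cells read 24 h after compound dosing; fitted both ways against DMSO so a hit may be signal rise or drop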
Measurement Conditions: primary human endothelial cells (HUVEC)
The source made the active and inactive calls. The calls were made as follows: active = hit-call score of the fitted dose curve at least 0.9, where 1 is the maximum; inactive = score below 0.9.
Would you mind answering with one of these outcomes? active, inactive

Dear colleague, could you share the recorded outcome for O=[N+]([O-])c1ccc(Cl)c(Cl)c1 when you have a moment? inactive

Dear colleague, could you share the recorded outcome for O=C(O)C=CC(F)(C(F)(F)F)C(F)(F)F when you have a moment? inactive

Dear colleague, could you share the recorded outcome for CN(C)C(=O)Cl when you have a moment? inactive

Dear colleague, could you share the recorded outcome for COC(=O)C(F)(F)C(F)(F)OC(F)(C(F)(F)F)C(F)(F)OC(F)=C(F)F (centres undefined) when you have a moment? inactive

Dear colleague, could you share the recorded outcome for CCOc1ccc(C(C)(C)COCc2cccc(Oc3ccccc3)c2)cc1 when you have a moment? inactive

Dear colleague, could you share the recorded outcome for Cc1ccc2c(c1N)C(=O)c1ccccc1C2=O when you have a moment? active

Dear colleague, could you share the recorded outcome for O=C(O)C(F)(OC(F)(F)C(F)(F)C(F)(F)F)C(F)(F)F (centres undefined) when you have a moment? inactive

Dear colleague, could you share the recorded outcome for CC(O)C(F)(F)C(F)(F)F (centres undefined) when you have a moment? inactive

Dear colleague, could you share the recorded outcome for CC(C)(C)c1ccccc1OP(=O)(Oc1ccccc1)Oc1ccccc1 when you have a moment? active

Dear colleague, could you share the recorded outcome for CCCCOCCOP(=O)(OCCOCCCC)OCCOCCCC when you have a moment? inactive

Dear colleague, could you share the recorded outcome for CSC(C)(C)C=NO when you have a moment? inactive

Dear colleague, could you share the recorded outcome for COCCOCCO when you have a moment? inactive

Dear colleague, could you share the recorded outcome for CCCCc1ccccc1 when you have a moment? inactive

Dear colleague, could you share the recorded outcome for CCC(C)(C)c1ccc(O)cc1 when you have a moment? inactive
